Experiment: Fibril dimensions measured from TEM images
Type: physicochemical
Conditions: physiological conditions, TEM
Where a SMILES comes first, the peptide text is derived from it.
experimental.endpoint: ww, width of the fibril at its widest point

[
  {
    "compound": "CC(=O)N[C@@H](CCC(N)=O)C(=O)N[C@@H](CCC(N)=O)C(=O)N[C@@H](CCCNC(=N)N)C(=O)N[C@@H](CCC(N)=O)C(=O)N[C@@H](CCC(=O)O)C(=O)N[C@@H](CCC(N)=O)C(=O)N[C@@H](CCC(=O)O)C(=O)N[C@@H](CCC(N)=O)C(=O)N[C@@H](CCC(=O)O)C(=O)N[C@@H](CCC(N)=O)C(=O)N[C@@H](CCC(N)=O)C(N)=O [Peptide P11-20, CH3CO-Q-Q-R-Q-E-Q-E-Q-E-Q-Q-NH2] (Ac-QQRQEQEQEQQ-NH2)",
    "result": "14-20 nm"
  },
  {
    "compound": "CC(=O)N[C@@H](CO)C(=O)N[C@@H](CO)C(=O)N[C@@H](CCCNC(=N)N)C(=O)N[C@@H](Cc1ccccc1)C(=O)N[C@@H](CCC(=O)O)C(=O)N[C@@H](Cc1c[nH]c2ccccc12)C(=O)N[C@@H](CCC(=O)O)C(=O)N[C@@H](Cc1ccccc1)C(=O)N[C@@H](CCC(=O)O)C(=O)N[C@@H](CO)C(=O)N[C@@H](CO)C(N)=O [Peptide P11-9, CH3CO-S-S-R-F-E-W-E-F-E-S-S-NH2] (Ac-SSRFEWEFESS-NH2)",
    "result": "7-12 nm"
  }
]

// lookup ww, width of the fibril at its widest point for CC(=O)N[C@@H](CC(N)=O)C(=O)N[C@@H](CC(N)=O)C(=O)N[C@@H](CCCNC(=N)N)C(=O)N[C@@H](Cc1ccccc1)C(=O)N[C@@H](CCC(=O)O)C(=O)N[C@@H](Cc1c[nH]c2ccccc12)C(=O)N[C@@H](CCC(=O)O)C(=O)N[C@@H](Cc1ccccc1)C(=O)N[C@@H](CCC(=O)O)C(=O)N[C@@H](CC(N)=O)C(=O)N[C@@H](CC(N)=O)C(N)=O [Peptide P11-15, CH3CO-N-N-R-F-E-W-E-F-E-N-N-NH2] (Ac-NNRFEWEFENN-NH2)
7-10 nm

* * *

Assay: Fibril dimensions measured from TEM images
Format: physicochemical
Details: physiological conditions, TEM
Where a SMILES comes first, the peptide text is derived from it. [ ]: non-standard residue; d: D form. Orn = NCCC[C@H](N)C(=O)O
experimental.endpoint: l, fibril persistence length

Solved entries (count: 5):
[
  {
    "molecule": "CC(=O)N[C@H](C(=O)N[C@H](C(=O)N[C@@H](CCCNC(=N)N)C(=O)N[C@@H](Cc1ccccc1)C(=O)N[C@@H](CCC(=O)O)C(=O)N[C@@H](Cc1c[nH]c2ccccc12)C(=O)N[C@@H](CCC(=O)O)C(=O)N[C@@H](Cc1ccccc1)C(=O)N[C@@H](CCC(=O)O)C(=O)N[C@H](C(=O)N[C@H](C(N)=O)[C@@H](C)O)[C@@H](C)O)[C@@H](C)O)[C@@H](C)O [Peptide P11-17, CH3CO-T-T-R-F-E-W-E-F-E-T-T-NH2] (Ac-TTRFEWEFETT-NH2)",
    "l, fibril persistence length": "0.3-1.7 μm"
  },
  {
    "molecule": "CC(=O)N[C@@H](CO)C(=O)N[C@@H](CO)C(=O)N[C@@H](CCCNC(=N)N)C(=O)N[C@@H](Cc1ccccc1)C(=O)N[C@@H](CCC(=O)O)C(=O)N[C@@H](Cc1c[nH]c2ccccc12)C(=O)N[C@@H](CCC(=O)O)C(=O)N[C@@H](Cc1ccccc1)C(=O)N[C@@H](CCC(=O)O)C(=O)N[C@@H](CO)C(=O)N[C@@H](CO)C(N)=O [Peptide P11-9, CH3CO-S-S-R-F-E-W-E-F-E-S-S-NH2] (Ac-SSRFEWEFESS-NH2)",
    "l, fibril persistence length": "0.4-1.3 μm"
  },
  {
    "molecule": "CC(=O)N[C@@H](CCC(N)=O)C(=O)N[C@@H](CCC(N)=O)C(=O)N[C@@H](CCCNC(=N)N)C(=O)N[C@@H](CCC(N)=O)C(=O)N[C@@H](CCCN)C(=O)N[C@@H](CCC(N)=O)C(=O)N[C@@H](CCCN)C(=O)N[C@@H](CCC(N)=O)C(=O)N[C@@H](CCC(=O)O)C(=O)N[C@@H](CCC(N)=O)C(=O)N[C@@H](CCC(N)=O)C(N)=O [Peptide P11-19, CH3CO-Q-Q-R-Q-O-Q-O-Q-E-Q-Q-NH2] (Ac-QQRQ[Orn]Q[Orn]QEQQ-NH2)",
    "l, fibril persistence length": "0.5-1 μm"
  },
  {
    "molecule": "CC(=O)N[C@@H](CO)C(=O)N[C@@H](CO)C(=O)N[C@@H](CCCNC(=N)N)C(=O)N[C@@H](Cc1ccccc1)C(=O)N[C@@H](CCCN)C(=O)N[C@@H](Cc1c[nH]c2ccccc12)C(=O)N[C@@H](CCCN)C(=O)N[C@@H](Cc1ccccc1)C(=O)N[C@@H](CCC(=O)O)C(=O)N[C@@H](CO)C(=O)N[C@@H](CO)C(N)=O [Peptide P11-12, CH3CO-S-S-R-F-O-W-O-F-E-S-S-NH2] (Ac-SSRF[Orn]W[Orn]FESS-NH2)",
    "l, fibril persistence length": "0.4-1.2 μm"
  },
  {
    "molecule": "CC(=O)N[C@H](C(=O)N[C@H](C(=O)N[C@@H](CCCNC(=N)N)C(=O)N[C@@H](Cc1ccccc1)C(=O)N[C@@H](CCCN)C(=O)N[C@@H](Cc1c[nH]c2ccccc12)C(=O)N[C@@H](CCCN)C(=O)N[C@@H](Cc1ccccc1)C(=O)N[C@@H](CCC(=O)O)C(=O)N[C@H](C(=O)N[C@H](C(N)=O)[C@@H](C)O)[C@@H](C)O)[C@@H](C)O)[C@@H](C)O [Peptide P11-18, CH3CO-T-T-R-F-O-W-O-F-E-T-T-NH2] (Ac-TTRF[Orn]W[Orn]FETT-NH2)",
    "l, fibril persistence length": "0.5-1.7 μm"
  }
]

// lookup l, fibril persistence length for CC(=O)N[C@@H](CC(N)=O)C(=O)N[C@@H](CC(N)=O)C(=O)N[C@@H](CCCNC(=N)N)C(=O)N[C@@H](Cc1ccccc1)C(=O)N[C@@H](CCC(=O)O)C(=O)N[C@@H](Cc1c[nH]c2ccccc12)C(=O)N[C@@H](CCC(=O)O)C(=O)N[C@@H](Cc1ccccc1)C(=O)N[C@@H](CCC(=O)O)C(=O)N[C@@H](CC(N)=O)C(=O)N[C@@H](CC(N)=O)C(N)=O [Peptide P11-15, CH3CO-N-N-R-F-E-W-E-F-E-N-N-NH2] (Ac-NNRFEWEFENN-NH2)
0.3-1.2 μm
